Reference source for all entries: PubChem BioAssay AID686979

- PROTOCOL TEXT: qHTS for Inhibitors of human tyrosyl-DNA phosphodiesterase 1 (TDP1): qHTS in cells in presence of CPT; also: nearly all actives have a fitted effect of over 55% in size
- COND: chicken DT40 Tdp1-/-;hTDP1 cells + 20 nM CPT, ATP luminescence, 48 h; series mostly up to 46.2 µM
- Method: Human tyrosyl-DNA phosphodiesterase 1 (TDP1) is a novel repair gene, and we propose to use it as a new target for anticancer drug development. […] For the primary screen, Tdp1-/-;hTDP1 cells will be exposed to small molecules in the presence or absence of CPT, and their growth kinetics will be evaluated after 48 hours by measuring ATP activity. […] The hit compounds will then be evaluated in the presence or absence of CPT using Tdp1-/- cells. […]
About 50,000 (12%) of roughly 420,000 compounds were called active. Inconclusive results (about 26%) are left out. Calls follow the shape of the dose curve; as a rule, active = well fitted inhibition curve with a large enough effect; inconclusive = small, poorly fitted or top-dose-only effect; inactive = flat fitted curve, though single readings scatter. Only a selection was taken, and actives are over-represented in it overall.
Can you answer with just one of these options? true (1) (active), false (0) (inactive)

A selection of reference data follows.
[[record]]
molecule = "N#C/C(=C(/O)COc1cccc2ccccc12)c1nc2ccccc2[nH]1"
cat = "false (0)"

[[record]]
molecule = "CCN(CC)CCCNC(=O)CCn1nc(-c2ccc(Cl)cc2)ccc1=O"
cat = "false (0)"

[[record]]
molecule = "Cc1ccc(-c2nc3ccc(Br)cn3c2Cc2ccccc2C(F)(F)F)cc1"
cat = "true (1)"

[[record]]
molecule = "CCOc1ccc(-c2nnn(CC(=O)N3CCN(c4ccc(OC)cc4)CC3)n2)cc1OCC"
cat = "false (0)"

[[record]]
molecule = "Cc1cc(OC(C)C(=O)Nc2sc3c(c2C(N)=O)CCCC3)ccc1Cl (stereo not drawn)"
cat = "false (0)"


Recorded test call requested for `CN1CCN(Cc2c(C(=O)N3CCc4ccccc4C3)nc3ccc(Cl)cn23)CC1` false (0)

Recorded test call requested for `Cc1ccc(Cc2c(-c3ccco3)nc3ccc(Cl)cn23)cc1` true (1)

Recorded test call requested for `O=C(Nc1ccccc1-c1nnn(CC(=O)N2CCN(c3ccccc3)CC2)n1)c1cccs1` true (1)

====

- PROTOCOL TEXT: qHTS for Inhibitors of human tyrosyl-DNA phosphodiesterase 1 (TDP1): qHTS in cells in presence of CPT; also: nearly all actives have a fitted effect of over 55% in size
- COND: chicken DT40 Tdp1-/-;hTDP1 cells + 20 nM CPT, ATP luminescence, 48 h; series mostly up to 46.2 µM
- Experimental: Human tyrosyl-DNA phosphodiesterase 1 (TDP1) is a novel repair gene, and we propose to use it as a new target for anticancer drug development. […] For the primary screen, Tdp1-/-;hTDP1 cells will be exposed to small molecules in the presence or absence of CPT, and their growth kinetics will be evaluated after 48 hours by measuring ATP activity. […] The hit compounds will then be evaluated in the presence or absence of CPT using Tdp1-/- cells. […]
Hit rate of the full screen: of about 420,000 compounds, about 50,000 (12%) were called active. Another 26% or so got no clear call; they are omitted. The call rests on the fitted dose curve; in most records, active means well fitted inhibition curve with a large enough effect; inconclusive means small, poorly fitted or top-dose-only effect; inactive means flat fitted curve, though single readings scatter. The entries come from a sample that favours actives as a whole.
Can you answer with just one of these options? true (1) (active), false (0) (inactive)

A selection of reference data follows.
[[record]]
smiles_representation = "COc1ccc(-n2c(=O)[nH]c3cc(C(=O)NCCc4ccc(OC)c(OC)c4)ccc3c2=O)c(OC)c1"
cat = "false (0)"

[[record]]
smiles_representation = "COc1ccc(C(=O)NCC[N+](C)(C)C)cc1"
cat = "false (0)"


Recorded test call requested for `CCn1c(C)c(C)c2cc(C(=O)NCCc3cc(OC)ccc3OC)ccc21` true (1)

====

- PROTOCOL TEXT: qHTS for Inhibitors of human tyrosyl-DNA phosphodiesterase 1 (TDP1): qHTS in cells in presence of CPT; also: nearly all actives have a fitted effect of over 55% in size; also: potency is read from the fitted curve at half-maximal effect
- COND: chicken DT40 Tdp1-/-;hTDP1 cells + 20 nM CPT, ATP luminescence, 48 h; series mostly up to 46.2 µM
- Description: Human tyrosyl-DNA phosphodiesterase 1 (TDP1) is a novel repair gene, and we propose to use it as a new target for anticancer drug development. […] For the primary screen, Tdp1-/-;hTDP1 cells will be exposed to small molecules in the presence or absence of CPT, and their growth kinetics will be evaluated after 48 hours by measuring ATP activity. […] The hit compounds will then be evaluated in the presence or absence of CPT using Tdp1-/- cells. […]
In all, about 420,000 compounds went through this assay and about 50,000 (12%) were called active. Another 26% or so got no clear call; they are omitted. Only a selection was taken, and actives are over-represented in it overall.
REPORTED METRIC: Potency

Worked examples follow.
[[record]]
compound = "COc1cc(F)c(C2=CC(=O)CC(C)(C)C2)cc1F"
reported_result = "inactive"

[[record]]
compound = "COc1ccc2c(c1)N(C)/C(=C1/SC(=S)N(NC(C)=O)C1=O)S2"
reported_result = "inactive"

[[record]]
compound = "CN(Cc1ccc(F)cc1Cl)S(=O)(=O)c1cccs1"
reported_result = "inactive"

[[record]]
compound = "OC(CN1C2=NCCCN2c2ccccc21)c1ccc(Br)cc1 (centres undefined)"
reported_result = "inactive"

[[record]]
compound = "CC(C)(C)NC(=O)CN1CCC(NC(=O)C23CC4CC(CC(C4)C2)C3)CC1"
reported_result = "inactive"

[[record]]
compound = "Cc1ccccc1Nc1nc(N)nc(CSc2nnc3ccccn23)n1"
reported_result = "inactive"


Respond only with Potency recorded for `Cc1cc2c(cc1C)N(Cc1ccccc1)C1=NCCCN12` 13 µM (active)

Respond only with Potency recorded for `COc1ccc(CNS(=O)(=O)c2ccc(NC(=O)N3CCCCC3)cc2)cc1` 18.4 µM (active)

Respond only with Potency recorded for `CC(C)Oc1ccc(Cc2n[nH]c(=S)n2Cc2ccccc2)cc1Cl` inactive

====

- PROTOCOL TEXT: qHTS for Inhibitors of human tyrosyl-DNA phosphodiesterase 1 (TDP1): qHTS in cells in presence of CPT; also: nearly all actives have a fitted effect of over 55% in size
- COND: chicken DT40 Tdp1-/-;hTDP1 cells + 20 nM CPT, ATP luminescence, 48 h; series mostly up to 46.2 µM
Among all 420,000 compounds or so, about 50,000 (12%) were called active. About 26% were inconclusive and are not listed. The call rests on the fitted dose curve; in most records, active means well fitted inhibition curve with a large enough effect; inconclusive means small, poorly fitted or top-dose-only effect; inactive means flat fitted curve, though single readings scatter. This excerpt belongs to a sample that is enriched for actives.
Can you answer with just one of these options? True for active, False for inactive

A selection of reference data follows.
[[record]]
compound = "COC(=O)CCCC1=CC2=C(c3ccccc3)C(=O)C(C)(OC(=O)C3CCCC3)C(=O)C2=CN1c1ccc(OC)cc1 (stereo unspecified)"
cat = "True"

[[record]]
compound = "COCC(=O)Nc1c(C(=O)N2CCCC2)oc2ccccc12"
cat = "False"

[[record]]
compound = "CCc1nc2cccnc2n1-c1ccc(C(=O)O)cc1"
cat = "False"

[[record]]
compound = "CC(C)(C)c1ccccc1NC(=O)CN1C(=O)NC2(CCCC2)C1=O"
cat = "False"

[[record]]
compound = "Cc1ccc(CN2CCN(c3ncccn3)CC2)c(C)c1"
cat = "False"


Continue with the compound presented below.
Recorded test call requested for `NC(=O)c1oc2ccccc2c1NC(=O)Cc1ccccc1` False

====

- PROTOCOL TEXT: qHTS for Inhibitors of human tyrosyl-DNA phosphodiesterase 1 (TDP1): qHTS in cells in presence of CPT; also: nearly all actives have a fitted effect of over 55% in size
- COND: chicken DT40 Tdp1-/-;hTDP1 cells + 20 nM CPT, ATP luminescence, 48 h; series mostly up to 46.2 µM
Out of some 420,000 compounds screened, about 50,000 (12%) were called active. Not shown: some 26% with an inconclusive outcome. The call rests on the fitted dose curve; in most records, active means well fitted inhibition curve with a large enough effect; inconclusive means small, poorly fitted or top-dose-only effect; inactive means flat fitted curve, though single readings scatter. The full list was thinned out, with actives kept by preference.
Can you answer with just one of these options? active, inactive

[[record]]
molecule = "COc1ccc(OCCCC(=O)Oc2ccc(OC)cc2)cc1"
cat = "inactive"

[[record]]
molecule = "CCOC(=O)NC(=O)C(=CNc1cccc(OC)c1)C(=O)NC(=O)OCC"
cat = "inactive"

[[record]]
molecule = "N#Cc1c(C(F)(F)F)cc(-c2cccs2)nc1N1CCCCC1"
cat = "inactive"


Recorded test call requested for `COc1ccc(CCC(=O)c2ccc(OC)cc2)cc1` inactive

Recorded test call requested for `OC[C@H]1O[C@@H](c2nc(-c3nc(-c4ccc(F)cc4)no3)cs2)[C@H](O)[C@@H](O)[C@H]1O` inactive

Recorded test call requested for `Cc1ccc(CSCCNC(=O)CN(c2ccc(F)cc2)S(C)(=O)=O)cc1` inactive

Recorded test call requested for `Cc1cccc(C)c1NC(=O)CCS(=O)(=O)c1cccc2nsnc12` inactive

Recorded test call requested for `CN(C)CCN(C(=O)CN1C(=O)c2ccccc2C1=O)c1nc2cc3c(cc2s1)OCCO3` inactive

Recorded test call requested for CC(Sc1nc2cc(Cl)ccc2s1)C(=O)Nc1ccc2c(c1)OCO2 (configuration not stated) inactive

Recorded test call requested for CCOc1ccccc1NC(=O)C1=C(C)Nc2ncnn2C1c1ccc(NC(C)=O)cc1 (configuration not stated) inactive

Recorded test call requested for `CN(C)CCCN(C(=O)COc1ccccc1)c1nc2c(Cl)cccc2s1` inactive

Recorded test call requested for `Fc1ccccc1CNC(=S)Nc1ccc(Cl)cc1` active
